molecular target: UniProt P61169; assay: Effect on DOPA accumulation in limbic and striatal regions of reserpine-pretreated rat brains.; assay type: functional, tissue-based; settings: Brain
Sequence (P61169 whole entry): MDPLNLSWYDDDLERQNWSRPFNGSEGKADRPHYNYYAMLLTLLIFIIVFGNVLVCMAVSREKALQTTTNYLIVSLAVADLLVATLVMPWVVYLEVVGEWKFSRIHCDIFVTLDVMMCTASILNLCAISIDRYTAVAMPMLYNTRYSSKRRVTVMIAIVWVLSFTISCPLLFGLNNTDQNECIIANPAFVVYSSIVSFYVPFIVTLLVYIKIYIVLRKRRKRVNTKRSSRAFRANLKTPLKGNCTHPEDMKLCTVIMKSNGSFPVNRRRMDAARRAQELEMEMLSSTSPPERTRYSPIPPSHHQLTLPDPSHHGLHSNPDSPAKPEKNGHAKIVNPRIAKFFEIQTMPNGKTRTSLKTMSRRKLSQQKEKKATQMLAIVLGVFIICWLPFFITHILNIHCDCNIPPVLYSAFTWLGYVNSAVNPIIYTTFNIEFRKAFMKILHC
Recorded DOPA accumulation for the following compounds
MEASURED_ENDPOINT: DOPA accumulation

[[record]]
chem_smiles = "CCCN1CCC[C@@H](c2cccc(C(C)=O)c2)C1"
reported = 73

[[record]]
chem_smiles = "CC(C)N1CCC[C@@H](c2cccc(O)c2)C1"
reported = 18

[[record]]
chem_smiles = "CCCN1CCC[C@@H](c2cccc(S(C)(=O)=O)c2)C1"
reported = 95

[[record]]
chem_smiles = "C=CCN1CCC[C@@H](c2cccc(C#N)c2)C1"
reported = 85

[[record]]
chem_smiles = "CCCN1CCC[C@@H](c2cccc(CC#N)c2)C1"
reported = 57

[[record]]
chem_smiles = "CCCN1CCC[C@@H](c2cccc(N)c2)C1"
reported = 91

